Hi! I'm sharing some pKi results obtained with Cholinesterase (Homo sapiens).
Sequence (P06276 whole entry): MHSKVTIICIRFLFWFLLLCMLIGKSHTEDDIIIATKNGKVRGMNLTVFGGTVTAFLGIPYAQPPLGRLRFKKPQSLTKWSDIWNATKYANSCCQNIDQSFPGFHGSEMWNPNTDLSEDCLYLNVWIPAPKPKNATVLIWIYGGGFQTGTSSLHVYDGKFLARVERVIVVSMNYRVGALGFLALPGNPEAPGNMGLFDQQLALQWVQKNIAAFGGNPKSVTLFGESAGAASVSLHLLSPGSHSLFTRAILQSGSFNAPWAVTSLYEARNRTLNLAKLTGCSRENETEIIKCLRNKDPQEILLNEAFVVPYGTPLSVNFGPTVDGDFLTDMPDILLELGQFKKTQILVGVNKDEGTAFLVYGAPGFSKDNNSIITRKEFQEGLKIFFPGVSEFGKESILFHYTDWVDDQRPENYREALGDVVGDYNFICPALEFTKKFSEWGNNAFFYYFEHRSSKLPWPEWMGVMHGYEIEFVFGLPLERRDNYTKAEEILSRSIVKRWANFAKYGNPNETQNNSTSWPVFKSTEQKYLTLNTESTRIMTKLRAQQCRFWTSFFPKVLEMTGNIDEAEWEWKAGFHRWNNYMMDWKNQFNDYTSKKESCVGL
Entry type: numeric. Quantity: pKi, the -log10 of concentration in molar units.

INSERT INTO assay_data (compound, result) VALUES
  ('CC(C)N(CCNC(=O)N1c2ccccc2Sc2ccccc21)C(C)C', 7.68),
  ('CC[N+](C)(C)c1cccc(O)c1 [Edrophonium Chloride, 3]', 3.70),
  ('O=C(c1c2ccccc2cc2ccccc12)N1c2ccccc2Sc2ccccc21', 7.80);

Now for a further compound.
input: Please provide the recorded pKi for Cc1ccc2c(c1)sc(-c1ccc(N(C)C)cc1)[n+]2C , tested on Cholinesterase (Homo sapiens).
output: 5.44
